# measurement-target: F508delCFTR (Homo sapiens, UniProt P13569, DEL508-508)
# Construct: expressed in transfected cells; host or cells: CFBE41o- human lung-derived epithelial cells (CFBE4lo-F508delCFTR-HRP), doxycycline-inducible
# Sequence (P13569 with tags, fused parts or gaps DEL508-508): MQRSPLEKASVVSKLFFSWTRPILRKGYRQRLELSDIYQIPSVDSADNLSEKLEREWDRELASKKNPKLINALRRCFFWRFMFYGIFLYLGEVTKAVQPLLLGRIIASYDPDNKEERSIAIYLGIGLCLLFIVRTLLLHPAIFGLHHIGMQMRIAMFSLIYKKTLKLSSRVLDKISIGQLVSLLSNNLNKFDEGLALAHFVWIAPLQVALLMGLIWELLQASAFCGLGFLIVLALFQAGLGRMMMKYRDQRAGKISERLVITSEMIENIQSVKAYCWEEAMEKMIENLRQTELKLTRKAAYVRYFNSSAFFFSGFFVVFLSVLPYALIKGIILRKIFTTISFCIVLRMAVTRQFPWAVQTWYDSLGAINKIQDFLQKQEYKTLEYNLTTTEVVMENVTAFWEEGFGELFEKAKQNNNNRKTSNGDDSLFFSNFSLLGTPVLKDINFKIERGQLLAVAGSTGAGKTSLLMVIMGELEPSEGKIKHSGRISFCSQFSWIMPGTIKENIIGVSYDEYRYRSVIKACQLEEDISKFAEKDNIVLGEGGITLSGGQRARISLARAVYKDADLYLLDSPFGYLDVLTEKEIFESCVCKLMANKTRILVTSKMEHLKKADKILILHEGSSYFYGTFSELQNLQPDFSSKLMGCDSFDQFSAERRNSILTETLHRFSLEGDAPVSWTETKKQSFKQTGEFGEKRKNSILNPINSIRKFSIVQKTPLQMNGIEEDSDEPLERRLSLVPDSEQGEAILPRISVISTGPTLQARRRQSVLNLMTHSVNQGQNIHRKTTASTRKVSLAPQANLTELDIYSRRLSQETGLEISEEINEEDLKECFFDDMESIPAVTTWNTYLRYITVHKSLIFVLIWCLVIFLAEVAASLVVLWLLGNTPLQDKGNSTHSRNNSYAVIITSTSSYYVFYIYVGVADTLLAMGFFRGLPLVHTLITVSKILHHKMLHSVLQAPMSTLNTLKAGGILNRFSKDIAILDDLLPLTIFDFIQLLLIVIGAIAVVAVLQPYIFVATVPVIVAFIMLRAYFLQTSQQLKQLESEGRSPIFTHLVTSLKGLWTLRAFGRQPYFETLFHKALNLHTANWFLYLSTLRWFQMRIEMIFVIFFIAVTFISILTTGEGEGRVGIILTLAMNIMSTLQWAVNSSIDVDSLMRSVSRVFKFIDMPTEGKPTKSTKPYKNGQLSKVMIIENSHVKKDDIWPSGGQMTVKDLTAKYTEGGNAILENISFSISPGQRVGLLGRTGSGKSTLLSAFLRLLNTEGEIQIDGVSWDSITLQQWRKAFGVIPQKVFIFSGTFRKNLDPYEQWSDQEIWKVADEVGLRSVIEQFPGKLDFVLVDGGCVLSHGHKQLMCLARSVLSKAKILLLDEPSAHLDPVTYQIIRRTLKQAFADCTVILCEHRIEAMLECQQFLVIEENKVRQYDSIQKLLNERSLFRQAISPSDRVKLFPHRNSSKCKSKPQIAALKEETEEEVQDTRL
# assay-overview: Cell Surface Expression-Horse Radish Peroxidase (CSE-HRP) Assay
# Assay type: cell-based
# condition-set: with co-corrector (2 μM of 3-[(2R,4R)-4-({[1-(2,2-difluoro-1,3-benzodioxol-5-yl)cyclopropyl]carbonyl}amino)-7-methoxy-3,4-dihydro-2H-chromen-2-yl]benzoic acid); read-out: EC50 (with co-corrector)
pEC50: −log10 of the molar value.
parameter: pEC50

Data request: I am curious: what pEC50 value has been reported for COc1ccc(C(F)(F)F)cc1CN[C@@H]1[C@@H](C(C)(C)C)[C@H](C(=O)O)N(C(=O)C2CCCCC2)[C@@H]1c1ccccc1 (racemic) ?
Data returned: 5.00 to 6.00

Data request: Now the same for "COc1ncc(C2CCC2)cc1CN[C@H]1[C@H](C(C)(C)C)[C@@H](C(=O)O)N(C(=O)C2CCCCC2)[C@H]1c1ccccc1"
Data returned: > 6.00

Data request: Now the same for "COc1ncc(C(F)(F)F)cc1CN[C@H]1[C@H](C(C)(C)C)[C@@H](C(=O)O)N(C(=O)OC(C)C)[C@H]1c1cccnc1N(C)C"
Data returned: 5.00 to 6.00

Data request: Now the same for "COc1ccc(C2(C(F)(F)F)CC2)nc1CN[C@H]1[C@H](C(C)(C)C)[C@@H](C(=O)O)N(C(=O)C2CCCCC2)[C@H]1c1ccccc1"
Data returned: 5.00 to 6.00

Data request: Now the same for "CC(C)(C)[C@H]1[C@H](NCc2ccc3c(c2)OCCO3)[C@H](c2ccccc2)N(C(=O)C2CCCCC2)[C@@H]1C(=O)O"
Data returned: 5.00 to 6.00

Data request: Now the same for "CC(C)(C)[C@H]1[C@H](NCc2cc(Br)ccc2OC(F)F)[C@H](c2ccccc2)N(C(=O)C2CCCCC2)[C@@H]1C(=O)O"
Data returned: 5.00 to 6.00

Data request: Now the same for COc1ccc(C(C)(C)C)cc1CN[C@H]1[C@H](C(C)(C)C)[C@@H](C(=O)O)N(C(=O)[C@@H]2C[C@H]3CC[C@@H]2O3)[C@H]1c1cccnc1OC (relative stereo)
Data returned: 5.00 to 6.00

Data request: Now the same for "COc1ccc(C(C)(C)C)cc1CN[C@H]1[C@H](C(C)(C)C)[C@@H](C(=O)O)N(C(=O)[C@H]2CCCCO2)[C@H]1c1ccccc1OC(F)F"
Data returned: 5.00 to 6.00

Data request: Now the same for "COc1ncc(C(F)(F)F)cc1CN[C@H]1[C@H](C23CC(C2)C3)[C@@H](C(=O)O)N(C(=O)OC(C)C)[C@H]1c1ccccc1"
Data returned: 5.00 to 6.00

Data request: Now the same for Cc1cc(C(F)(F)F)cc(N[C@@H]2[C@@H](C(C)(C)C)[C@H](C(=O)NS(C)(=O)=O)N(C(=O)C3CCCCC3)[C@@H]2c2ccccc2)n1 (racemic)
Data returned: 5.00 to 6.00

Data request: Now the same for "COc1ncc([Si](C)(C)C)cc1CN[C@H]1[C@H](C(C)(C)C)[C@@H](C(=O)O)N(C(=O)C2CCCCC2)[C@H]1c1ccccc1"
Data returned: > 6.00

Data request: Now the same for "CC(C)c1cc(C(F)(F)F)cc(N[C@H]2[C@H](C(C)(C)C)[C@@H](C(=O)O)N(C(=O)C3CCCCC3)[C@H]2c2ccccc2)n1"
Data returned: 5.00 to 6.00

Data request: Now the same for "COc1ccc(Br)cc1CN[C@H]1[C@H](C(C)(C)C)[C@@H](C(=O)O)N(C(=O)C2CCCCC2)[C@H]1c1ccccc1"
Data returned: > 6.00

Data request: Now the same for COc1ccc(C(C)(C)C)cc1CN[C@H]1[C@H](C(C)(C)C)[C@@H](C(=O)O)N(C(=O)C2C3CCCC32)[C@H]1c1cccnc1N(C)C (some centres unmarked)
Data returned: > 6.00

Data request: Now the same for "CC(C)(C)[C@H]1[C@H](NCc2ccc3c(c2)CCCO3)[C@H](c2ccccc2)N(C(=O)C2CCCCC2)[C@@H]1C(=O)O"
Data returned: 5.00 to 6.00

Data request: Now the same for "C/C=C/CC(C/C=C/C)C(=O)N1[C@H](C(=O)O)[C@@H](C(C)(C)C)[C@H](NCc2cc(C(C)(C)C)ccc2OC)[C@@H]1c1ccccc1"
Data returned: > 6.00

Data request: Now the same for COc1ncc(C2CC3CCC2C3)cc1CN[C@H]1[C@H](C(C)(C)C)[C@@H](C(=O)O)N(C(=O)C2CCCCC2)[C@H]1c1cccnc1N(C)C (some centres unmarked)
Data returned: 5.00 to 6.00
